Molecular target: voltage-gated sodium channel, site 2 (Rattus norvegicus, UniProt F1LQQ7+O08562+O88420+O88457+P04774+P04775+P08104+P15389+P15390+Q62968)
Test: Inhibition of Sodium Channel, Site 2 at 10 µM in the Eurofins-Panlabs radioligand binding assay (Eurofins_assay_279510)
Assay type: protein assay
Design: ligand concentration 5 nM, non-specific ligand with concentration 100 µM Veratridine, incubation time 60 min, incubation temperature 37 °C
Conditions: male, Wistar, rat whole brain (except cerebellum) membranes, probe [3H] Batrachotoxinin, 5 nM, compound concentration 10 uM
experimental-endpoint: inhibition at 60 min, 10 µM

# inhibition at 60 min, 10 µM lookup, item Cc1cc(OC2CCS(=O)(=O)CC2)cc(C)c1-c1cccc(COc2ccc(C(=O)O)c(F)c2)c1
-5% (not active)

# inhibition at 60 min, 10 µM lookup, item Cc1cc(OC2CCS(=O)(=O)CC2)cc(C)c1-c1cccc(COc2ccc(CCC(=O)O)c(F)c2)c1
6% (not active)

----------
Biological target: Alpha-1D adrenergic receptor (Homo sapiens, UniProt P25100)
Sequence (P25100 whole entry): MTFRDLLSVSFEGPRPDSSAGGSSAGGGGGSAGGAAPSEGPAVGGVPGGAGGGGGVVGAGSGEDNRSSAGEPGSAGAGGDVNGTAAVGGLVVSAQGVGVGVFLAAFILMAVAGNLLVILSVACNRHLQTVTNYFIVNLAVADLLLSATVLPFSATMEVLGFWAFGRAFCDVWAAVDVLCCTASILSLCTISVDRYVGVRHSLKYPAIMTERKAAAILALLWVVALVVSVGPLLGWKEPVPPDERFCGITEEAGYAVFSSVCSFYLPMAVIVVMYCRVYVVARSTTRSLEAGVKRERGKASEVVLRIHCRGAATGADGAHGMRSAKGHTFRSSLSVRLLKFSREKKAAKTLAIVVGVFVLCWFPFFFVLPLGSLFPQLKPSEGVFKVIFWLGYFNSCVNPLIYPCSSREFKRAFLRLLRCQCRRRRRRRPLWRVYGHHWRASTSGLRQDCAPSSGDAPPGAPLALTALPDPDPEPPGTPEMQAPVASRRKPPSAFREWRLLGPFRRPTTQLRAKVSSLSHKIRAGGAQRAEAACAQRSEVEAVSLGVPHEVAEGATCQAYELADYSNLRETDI
Test: GPCRScan assay: inhibition of Alpha1D
Parameters: radioligand conc. used [nm] 0.3 – 1.0, parental cells stable
experimental-endpoint: pKi
Units for pKi: none; it is -log10 of a concentration expressed in mol/L.

# pKi lookup, item Cc1cc(OC2CCS(=O)(=O)CC2)cc(C)c1-c1cccc(COc2ccc(CCC(=O)O)c(F)c2)c1
5.12

----------
Target: Xanthine dehydrogenase/oxidase (Bos taurus)
Assay: Xanthine Oxidase Eurofins-Panlabs enzyme assay
Conditions: cattle, bovine milk xanthine oxidase, probe Xanthine, 165 µM
experimental-endpoint: inhibition at 30 min, 10 µM

# inhibition at 30 min, 10 µM lookup, item Cc1cc(OC2CCS(=O)(=O)CC2)cc(C)c1-c1cccc(COc2ccc(CCC(=O)O)c(F)c2)c1
1% (not active)

----------
Target: MAO-B (Homo sapiens)
Sequence (P27338 whole entry): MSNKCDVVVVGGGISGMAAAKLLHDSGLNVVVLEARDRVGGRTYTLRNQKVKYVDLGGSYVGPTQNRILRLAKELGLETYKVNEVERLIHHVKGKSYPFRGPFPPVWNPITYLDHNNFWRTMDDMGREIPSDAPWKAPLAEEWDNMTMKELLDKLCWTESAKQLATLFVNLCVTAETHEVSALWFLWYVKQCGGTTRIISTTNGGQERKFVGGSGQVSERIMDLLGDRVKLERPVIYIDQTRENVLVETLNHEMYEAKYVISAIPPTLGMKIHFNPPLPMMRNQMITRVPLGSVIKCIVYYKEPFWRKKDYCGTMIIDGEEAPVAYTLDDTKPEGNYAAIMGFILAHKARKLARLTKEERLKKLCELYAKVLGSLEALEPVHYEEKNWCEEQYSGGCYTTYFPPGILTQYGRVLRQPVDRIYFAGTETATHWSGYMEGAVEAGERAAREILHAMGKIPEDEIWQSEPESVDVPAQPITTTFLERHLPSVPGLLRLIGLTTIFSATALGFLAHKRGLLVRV
Assay: Inhibition of Monoamine Oxidase MAO-B at compound concentration of 10.0 uM in the Eurofins-Panlabs enzyme assay (Eurofins_assay_140120)
Design: substrate with concentration 50 uM Kynuramine, incubation time 60 min, incubation temperature 37 C
Details: recombinant human MAO-B expressed in insect Hi5 cells, probe Kynuramine, 50 uM, compound concentration 10 uM
experimental-endpoint: inhibition at 60 min, 10 µM

# inhibition at 60 min, 10 µM lookup, item Cc1cc(OC2CCS(=O)(=O)CC2)cc(C)c1-c1cccc(COc2ccc(CCC(=O)O)c(F)c2)c1
6% (not active)

----------
Molecular target: D(3) dopamine receptor (Homo sapiens, UniProt P35462)
Sequence (P35462 whole entry): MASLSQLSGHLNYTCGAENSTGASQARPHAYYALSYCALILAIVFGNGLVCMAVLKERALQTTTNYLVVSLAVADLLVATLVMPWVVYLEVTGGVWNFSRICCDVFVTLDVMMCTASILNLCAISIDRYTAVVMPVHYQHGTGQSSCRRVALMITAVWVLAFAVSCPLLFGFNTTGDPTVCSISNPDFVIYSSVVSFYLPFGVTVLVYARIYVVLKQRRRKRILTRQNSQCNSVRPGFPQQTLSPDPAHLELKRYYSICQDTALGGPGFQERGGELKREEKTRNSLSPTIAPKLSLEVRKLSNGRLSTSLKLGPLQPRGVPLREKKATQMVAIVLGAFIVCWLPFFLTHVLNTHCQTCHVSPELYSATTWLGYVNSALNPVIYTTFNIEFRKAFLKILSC
Experiment: GPCRScan assay: inhibition of D3
Set-up: radioligand conc. used [nm] 0.5 – 1.8, parental cells HEKT
experimental-endpoint: Ki (nM)
Answer format: numeric, nM implied, no suffix.

# Ki lookup, item Cc1cc(OC2CCS(=O)(=O)CC2)cc(C)c1-c1cccc(COc2ccc(CCC(=O)O)c(F)c2)c1
925

----------
Biological target: D(4) dopamine receptor (Homo sapiens)
Sequence (P21917 whole entry): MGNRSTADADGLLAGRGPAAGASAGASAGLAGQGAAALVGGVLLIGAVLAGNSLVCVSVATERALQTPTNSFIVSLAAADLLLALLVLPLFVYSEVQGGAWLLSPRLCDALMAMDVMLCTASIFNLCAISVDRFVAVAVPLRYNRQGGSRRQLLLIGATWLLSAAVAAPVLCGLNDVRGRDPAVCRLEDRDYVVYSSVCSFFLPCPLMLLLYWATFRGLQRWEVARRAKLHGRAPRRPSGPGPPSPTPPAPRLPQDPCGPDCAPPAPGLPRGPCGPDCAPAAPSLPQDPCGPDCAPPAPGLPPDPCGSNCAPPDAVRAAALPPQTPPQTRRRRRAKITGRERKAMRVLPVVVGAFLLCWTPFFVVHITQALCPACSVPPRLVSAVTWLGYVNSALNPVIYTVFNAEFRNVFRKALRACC
experimental-endpoint: Ki (nM)
Answer format: numeric, nM implied, no suffix.

Lookup: Ki / D(4) dopamine receptor (Homo sapiens) / Cc1cc(OC2CCS(=O)(=O)CC2)cc(C)c1-c1cccc(COc2ccc(CCC(=O)O)c(F)c2)c1
1230
